Parameter CC50: see the listing below.
system: HeLa-APL; experiment: Inhibition of cells growth by colorimetric assay (SRB); conditions: read-out: LC50 HELA-APL; HELA-APL; SRB, 48 hours exposure
State just the number; it will be interpreted in nM.

{"columns": ["molecule", "units of measure", "CC50"],
 "data": [
  ["C=CCN1C2Cc3cc(C)c(OC)c(O)c3C1C1C3SCC(NC(=O)CC)C(=O)OCC(c4c5c(c(C)c(OC(C)=O)c43)OCO5)N1C2C#N (centres unmarked) [compound 27]", "nM", 951]
]}

In the following, a different molecule is considered.
IN: Identify measured CC50 associated with C=CCN1C2Cc3cc(C)c(OC)c(O)c3C1C1C3SCC(NC(C)=O)C(=O)OCC(c4c5c(c(C)c(OC(C)=O)c43)OCO5)N1C2C#N (centres unmarked) [compound 24]
OUT: 107

Source of measurements: patent US7767659B2
